Source listed as paper PMC9482650.

Target: T1, SIPA1L2, Q9P2F8
T1 sequence (Q9P2F8 945-1036, limits assumed, looked up): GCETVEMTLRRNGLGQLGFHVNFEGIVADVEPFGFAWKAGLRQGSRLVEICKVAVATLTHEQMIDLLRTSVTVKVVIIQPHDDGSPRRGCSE
Experiment: holdup assay
Parameters: key: below the threshold = too weak to quantify, mostly under pKd 3.1 to 4
Conditions: plain residues with an end cap or a label only (N-terminal biotin on a linker: ado-ado)
quantity_measured: pKd

Use these answered entries as a reference point.
binder="NNNVVKVDSV [MTNR1A, P48039]" recorded_measurement="below the threshold"
binder="QLSFNTDTLC [ABCA2, Q9BZC7]" recorded_measurement="below the threshold"
binder="QSYPSKHDYV [CLDN18, P56856]" recorded_measurement=3.53
binder="NISYRRESAI [KCNJ4, P48050]" recorded_measurement="below the threshold"

Proceed to the following item.
Give the measured pKd of SVTSERETNI [SLC16A7, O60669] . below the threshold
